Field: pIC50. System: UniProt P37173. Provenance: assorted publications.
pIC50: −log10 of the molar value.

// below: answered compounds
| compound | pIC50 |
| --- | --- |
| C[C@H](N)C(=O)NCc1ccc(-c2cnc(N)c(C(=O)Nc3cnccc3N3CCOCC3)n2)cc1 | 7.00 to 7.30 |
| Cc1cc(-c2cnc3cc(-c4ccc(C5COC6(CCNCC6)CN5)cc4)ccn23)c2cc(F)cc(F)c2n1 (stereo not drawn) | 6.21 |

Give the measured pIC50 of Nc1ncc(-c2ccc(CCC(=O)N3CCNCC3)cc2)nc1C(=O)Nc1cnccc1N1CCOCC1 . > 7.30

Then this compound: Nc1ncc(-c2ccc3c(c2)CC(N)CN3)nc1C(=O)Nc1cnccc1N1CCOCC1 (stereo not drawn) 7.00 to 7.30

Same lookup for CCOC(=O)[C@@H]1CN(Cc2ccccc2)C[C@H]1c1ccc(-c2cnc(N)c(C(=O)Nc3cnccc3N3CCOCC3)n2)cc1 , please. > 7.30

// query: CC(C)c1nccn1-c1ccncc1NC(=O)c1nc(-c2ccc(CCN)cc2)cnc1N > 7.30

And what about the compound Cc1cccc(-c2ncccc2-c2ccn3ncc(C(=O)NC4CC4)c3n2)n1 ? < 4.82

###

Here is a set of compounds with reported IC50 for TGFBR2 (Homo sapiens, UniProt P37173), compiled from the literature.

Would you please look over these solved cases?
| compound | IC50 |
| --- | --- |
| Nc1ncc(-c2ccc(CCNC(=O)OCc3ccccc3)cc2)nc1C(=O)Nc1cnccc1N1CCSCC1 | 100 to 1000 nM |
| COc1cc(CCN)ccc1-c1cnc(N)c(C(=O)Nc2cnccc2N2CCOCC2)n1 | 50 to 100 nM |
| Nc1ncc(-c2cccc3c2CCC3)nc1C(=O)Nc1cnccc1N1CCOCC1 | 50 to 100 nM |
| Cc1cccc(-c2ncccc2-c2ccn3nccc3n2)n1 | > 15000 nM |
| CCOC(=O)c1cnn2ccc(-c3cccnc3-c3cccc(C(F)(F)F)n3)nc12 | > 15000 nM |
| NCCOc1cccc(-c2cnc(N)c(C(=O)Nc3cnccc3N3CCOCC3)n2)c1 | < 50 nM |

Need IC50 of Cc1cc(-c2cnc3cc(-c4ccc(C5COCC(C)N5)cc4)ccn23)c2cc(F)cc(F)c2n1 (centres unmarked) , thanks. 560 nM

Entry to check: Cc1cc(-c2cnc3cc(-c4ccc(C5COCCN5)cc4)ccn23)c2cc(F)cc(F)c2n1 (centres unmarked) 388 nM

###

Assay read-out IC50 on TGFBR2 (Homo sapiens, UniProt P37173); records merged from the literature.

Completed entries (count: 4):
| molecule | study target | test value |
| --- | --- | --- |
| Nc1ncc(-c2ccc3c(c2)CCCC3O)nc1C(=O)Nc1cnccc1N1CCOCC1 (centres unmarked) | TGFBR2 (Homo sapiens, UniProt P37173) | < 50 nM |
| Nc1ncc(-c2ccc(N3CCCC3)cc2)nc1C(=O)Nc1cnccc1N1CCOCC1 | TGFBR2 (Homo sapiens, UniProt P37173) | < 50 nM |
| Cc1cccc(-c2ncccc2-c2ccc3nccnc3c2)n1 | TGFBR2 (Homo sapiens, UniProt P37173) | > 15000 nM |
| Cc1cccc(-c2ncccc2-c2ccc3ncc(C(N)=O)n3n2)n1 | TGFBR2 (Homo sapiens, UniProt P37173) | > 15000 nM |

Fill blank: measured IC50 of the molecule Nc1ncc(-c2ccc(CC(=O)N3CCNCC3)cc2)nc1C(=O)Nc1cnccc1N1CCOCC1 is ____. < 50 nM

And the next one, c1cnc2nccc(-c3cnc4cc(-c5ccc(C6CNCCN6)cc5)ccn34)c2c1 (centres unmarked) ? 4590 nM

Please do the same for C[C@H](NC(=O)OCC1c2ccccc2-c2ccccc21)C(=O)NCc1ccc(-c2cnc(N)c(C(=O)Nc3cnccc3N3CCOCC3)n2)cc1 as well. 100 to 1000 nM

Please do the same for Nc1ncc(-c2ccc(CCNC(=O)OCc3ccccc3)c(F)c2)nc1C(=O)Nc1cnccc1N1CCOCC1 as well. < 50 nM

###

pIC50: −log10 of the molar value.
Reported pIC50 against TGFBR2 (Homo sapiens, UniProt P37173), gathered from multiple publications, appears below.

| molecule | study target | pIC50 |
| --- | --- | --- |
| Nc1ncc(-c2ccc(N3CC[C@H](N)C3)cc2)nc1C(=O)Nc1cnccc1N1CCOCC1 | TGFBR2 (Homo sapiens, UniProt P37173) | > 7.30 |
| CC(=O)Nc1cc(Nc2nc(-c3cccc(C(F)(F)F)n3)nc3[nH]c(C4CC4)nc23)ccn1 | TGFBR2 (Homo sapiens, UniProt P37173) | < 4.82 |
| CC(N)COc1ccc(-c2cnc(N)c(C(=O)Nc3cnccc3N3CCOCC3)n2)cc1 (centres unmarked) | TGFBR2 (Homo sapiens, UniProt P37173) | > 7.30 |
| Cc1cccc(-c2ncccc2-c2ccc3ncc(C(=O)O)n3n2)n1 | TGFBR2 (Homo sapiens, UniProt P37173) | < 4.82 |
| COC(=O)[C@H](N)Cc1ccc(-c2cnc(N)c(C(=O)Nc3cnccc3N3CCOCC3)n2)cc1 | TGFBR2 (Homo sapiens, UniProt P37173) | > 7.30 |
| CC(CNC(=O)OC(C)(C)C)Oc1ccc(-c2cnc(N)c(C(=O)Nc3cnccc3N3CCOCC3)n2)cc1 (centres unmarked) | TGFBR2 (Homo sapiens, UniProt P37173) | > 7.30 |
| CC(C)(C)OC(=O)NC1CCc2cc(-c3cnc(N)c(C(=O)Nc4cnccc4N4CCOCC4)n3)ccc21 (centres unmarked) | TGFBR2 (Homo sapiens, UniProt P37173) | > 7.30 |

We next turn to a different molecule, shown below.
Sample N#Cc1cnc2ccc(-c3cccnc3-c3ccc(F)cn3)cn12 — what was its pIC50? < 4.82

###

Compiled literature IC50, tested on TGFBR2 (Homo sapiens).

| molecule | study target | IC50 |
| --- | --- | --- |
| Cc1cccc(-c2ncccc2-c2ccc3nc(C(N)=O)cn3c2)n1 | TGFBR2 (Homo sapiens) | > 15 µM |
| Cc1cccc(-c2ncccc2-c2ccc3ncc(C(=O)NCC(F)(F)F)n3c2)n1 | TGFBR2 (Homo sapiens) | > 15 µM |
| CCOC(=O)c1cnn2ccc(-c3cccnc3-c3ccc(F)c(C)n3)nc12 | TGFBR2 (Homo sapiens) | > 15 µM |

Which IC50 value belongs to COCCC(=O)Nc1cc(Nc2nc(-c3cccc(C(F)(F)F)n3)nc3[nH]cnc23)ccn1 ? > 15 µM

What do you get for NCC1COCCN1c1ccncc1NC(=O)c1nc(-c2ccc(CCNC(=O)OCc3ccccc3)cc2)cnc1N (stereo not shown) ? > 1 µM

How about this molecule: Cc1cccc(-c2nccc(C(F)F)c2-c2ccc3ncc(C(N)=O)n3c2)n1 > 15 µM

Ok, now Nc1ncc(-c2ccc(OCC[C@@H](NC(=O)OCc3ccccc3)C(=O)O)cc2)nc1C(=O)Nc1cnccc1N1CCOCC1 < 0.05 µM

Now this one: COC(=O)[C@@H](N)CCOc1ccc(-c2cnc(N)c(C(=O)Nc3cnccc3N3CCOCC3)n2)cc1 < 0.05 µM

What would you report for CC(C)(C)OC(=O)NCC1CCc2cc(-c3cnc(N)c(C(=O)Nc4cnccc4N4CCOCC4)n3)ccc2N1 (stereo not shown) ? 0.1 to 1 µM

Input NC(=O)c1cnc2ccc(-c3cc(F)cnc3-c3cccc(C(F)F)n3)cn12 > 15 µM

Would you mind doing CCc1nccn1-c1ccncc1NC(=O)c1nc(-c2ccc(CCNC(=O)OCc3ccccc3)cc2)cnc1N as well? < 0.05 µM

Try this molecule next: COC1CN(c2ccncc2NC(=O)c2nc(-c3ccc(CCN)cc3)cnc2N)C1 > 1 µM

// same read-out, input: CC(=O)Nc1cn2cc(-c3cccnc3-c3cccc(C)n3)ccc2n1 > 15 µM

What do you get for Cc1nc(-c2ncccc2-c2ccn3ncc(C(=O)NC4CC4)c3n2)ccc1F ? > 15 µM

Also need NCCc1ccc(-c2cnc(N)c(C(=O)Nc3cnc4[nH]ccc4c3N3CCOCC3)n2)cc1 , thanks. < 0.05 µM

One more molecule: CS(=O)(=O)Nc1cccc(-c2ncccc2-c2ccc3ncc(C#N)n3c2)n1 > 15 µM

###

We begin with IC50 values for TGFBR2 (Homo sapiens, UniProt P37173), as collected from the published literature.

| compound | IC50 |
| --- | --- |
| CCc1cccc(-c2ncccc2-c2ccc3ncnc(N)c3c2)n1 | > 15000 nM |

Report IC50 for Cc1nccn1-c1ccncc1NC(=O)c1nc(-c2ccc(CCN)cc2)cnc1N please. < 50 nM

Entry to check: NCCCc1ccc(-c2cnc(N)c(C(=O)Nc3cnccc3N3CCOCC3)c2)cc1 > 1000 nM

Also NCCc1ccc(-c2cnc(N)c(C(=O)Nc3cnccc3CN3CCCC3)n2)cc1 , if possible. 100 to 1000 nM

One more compound: Fc1cnccc1Nc1nc(-c2cccc(C(F)F)n2)nc2[nH]cnc12 3100 nM

Another: COC1CCN(c2ccncc2NC(=O)c2nc(-c3ccc(CCNC(=O)OCc4ccccc4)cc3)cnc2N)CC1 50 to 100 nM

Same question, Nc1ncc(-c2ccc(OC3CCNCC3)cc2)nc1C(=O)Nc1cnccc1N1CCOCC1 this time < 50 nM

Then Cc1cccc(-c2ncccc2-c2ccn3ncc(C#N)c3n2)n1 ? > 15000 nM

Item: CC(C)(C)OC(=O)N1CCN(c2cnc(N)c(C(=O)Nc3cnccc3N3CCOCC3)n2)CC1 > 1000 nM

Also check Nc1ncnc2ccc(-c3cccnc3-c3cccc(C4CC4)n3)cc12 > 15000 nM
